- assayComment: Mean pharmacokinetics parameters for Isotretinoin following single oral administration of Isotretinoin to healthy subjects.
- Format: ADME, organism-based
- Design: dose 80 mg, route oral
- condition: human, in vivo, po, 80 mg; dietary status Fed, dosed compound id 16, dosed compound name ISOTRETINOIN, regimen Single dose, tissue Plasma; read-out: AUC(0-24)
measurementLabel: AUC (ng·h/mL)

- compoundSmiles: "CC1=C(/C=C/C(C)=C/C=C/C(C)=C\\C(=O)O)C(C)(C)CCC1"
  numericValue: 6000

Source: ChEMBL document CHEMBL3832029
